Collected mass density values appear next to each entry.
settings: 348.15 K; 101.33 kPa; Liquid
Numbers only; they are read as kg/m3.

Previously resolved entries follow.
>>> print(df.to_string())
                                   compound  number
0  CCCC[n+]1cccc(C)c1.O=S(=O)([N-]S(=O)(=O)C(F)(F)F)C(F)(F)F  1367.4
1  CCC[n+]1cccc(C)c1.O=S(=O)([N-]S(=O)(=O)C(F)(F)F)C(F)(F)F  1401.1
2  CCCCCCCC[n+]1cccc(C)c1 [1-octyl-3-methylpyridinium]  1286.7
3  CCCCCC[n+]1ccccc1.O=S(=O)([N-]S(=O)(=O)C(F)(F)F)C(F)(F)F [1-hexylpyridinium bis(trifluromethylsulfonyl)imide]  1349.6

Query: Return mass density (reported value) for this compound: CCCC[n+]1ccc(C)cc1.O=S(=O)([N-]S(=O)(=O)C(F)(F)F)C(F)(F)F
Reply: 1366.2

Query: Return mass density (reported value) for this compound: CCCC[n+]1ccccc1.O=S(=O)([N-]S(=O)(=O)C(F)(F)F)C(F)(F)F [1-butylpyridinium bis[(trifluoromethyl)sulfonyl]imide]
Reply: 1402.5

###

conditions: 338.15 K; 101.33 kPa; Liquid
parameter: viscosity (mPa·s)
Numbers only; they are read as mPa·s.

                                   molecule  number
0  CCCCCC[n+]1ccccc1.O=S(=O)([N-]S(=O)(=O)C(F)(F)F)C(F)(F)F [1-hexylpyridinium bis(trifluromethylsulfonyl)imide]    20.3
1  CCC[n+]1cccc(C)c1.O=S(=O)([N-]S(=O)(=O)C(F)(F)F)C(F)(F)F   13.97
2  CCCC[n+]1ccccc1.O=S(=O)([N-]S(=O)(=O)C(F)(F)F)C(F)(F)F [1-butylpyridinium bis[(trifluoromethyl)sulfonyl]imide]   15.28
3                    CCCCCCCC[n+]1cccc(C)c1   22.95

Query: Return viscosity (reported value) for this molecule: CCCC[n+]1ccc(C)cc1.O=S(=O)([N-]S(=O)(=O)C(F)(F)F)C(F)(F)F
Reply: 13.82

###

conditions: 318.15 K; 101.33 kPa; Liquid
parameter: viscosity (mPa·s)
Numbers only; they are read as mPa·s.

Query: Return viscosity (reported value) for this molecule: CCCCCC[n+]1ccccc1.O=S(=O)([N-]S(=O)(=O)C(F)(F)F)C(F)(F)F [1-hexylpyridinium bis(trifluromethylsulfonyl)imide]
Reply: 39.74

Query: Return viscosity (reported value) for this molecule: CCCC[n+]1ccccc1.O=S(=O)([N-]S(=O)(=O)C(F)(F)F)C(F)(F)F [1-butylpyridinium bis[(trifluoromethyl)sulfonyl]imide]
Reply: 27.81

Query: Return viscosity (reported value) for this molecule: CCCCCCCC[n+]1cccc(C)c1
Reply: 46.23

Query: Return viscosity (reported value) for this molecule: CCC[n+]1cccc(C)c1.O=S(=O)([N-]S(=O)(=O)C(F)(F)F)C(F)(F)F
Reply: 25.2

Query: Return viscosity (reported value) for this molecule: CCCC[n+]1ccc(C)cc1.O=S(=O)([N-]S(=O)(=O)C(F)(F)F)C(F)(F)F
Reply: 25.34

###

Collected viscosity values appear next to each entry.
conditions: 283.15 K; 101.33 kPa; Liquid
Numbers only; they are read as mPa·s.

In [3]: df
Out[3]:
                                   molecule  parameter  unit_string  number
0  CCCCCCCC[n+]1cccc(C)c1 [1-octyl-3-methylpyridinium]  viscosity        mPa·s  281.38
1  CCCCCC[n+]1ccccc1.O=S(=O)([N-]S(=O)(=O)C(F)(F)F)C(F)(F)F [1-hexylpyridinium bis(trifluromethylsulfonyl)imide]  viscosity        mPa·s  229.05
2  CCC[n+]1cccc(C)c1.O=S(=O)([N-]S(=O)(=O)C(F)(F)F)C(F)(F)F  viscosity        mPa·s  117.81
3  CCCC[n+]1ccc(C)cc1.O=S(=O)([N-]S(=O)(=O)C(F)(F)F)C(F)(F)F  viscosity        mPa·s  124.19

# evaluate next
Query: Return viscosity (reported value) for this molecule: CCCC[n+]1ccccc1.O=S(=O)([N-]S(=O)(=O)C(F)(F)F)C(F)(F)F [1-butylpyridinium bis[(trifluoromethyl)sulfonyl]imide]
Reply: 133.34

Where do the numbers come from? From the NIST ThermoML archive (doi:10.1021/je100377k).
